- Test system: U2OS
- PROTOCOL DETAILS: Multiplex assay against U2OS
- Format: toxicity, cell-based
- EXPERIMENTAL CONDITIONS: human, 24 h, 1 µM, compound concentration 1 uM, replicate 1
# binarize Total Cell Count: threshold 300 inclusive, high side MET, low side NOT MET

// known answers, use as guide
COMPOUND: C[C@@H]1C[C@H]2[C@@H]3CCC4=CC(=O)C=C[C@]4(C)[C@@]3(F)[C@@H](O)C[C@]2(C)[C@@]1(O)C(=O)CO
LABEL VALUE: NOT MET
//
COMPOUND: COc1ccc2c(c1)C(C(=O)N(Cc1ccc(N(C)C)cc1)c1ccc(C(C)C)cc1)CCC2.Cl (centres undefined)
LABEL VALUE: NOT MET
//
COMPOUND: CNC[C@H](O)c1ccc(O)c(O)c1 [EPINEPHRINE]
LABEL VALUE: NOT MET
//
COMPOUND: N#Cc1c(N)nc(SCc2csc(-c3ccc(Cl)cc3)n2)c(C#N)c1-c1ccc(OCCO)cc1
LABEL VALUE: NOT MET
//
COMPOUND: O=C(O)Cc1ccccc1Nc1c(Cl)cccc1Cl
LABEL VALUE: NOT MET

Note: attention shifts to another entry.
Ask: Form field: Total Cell Count at least 300? Entry: CC(=O)NCCc1c(Cc2ccccc2)[nH]c2ccccc12
Result: NOT MET

----------
- Tested on: U2OS
- PROTOCOL DETAILS: Multiplex assay against U2OS
- Format: toxicity, cell-based
- EXPERIMENTAL CONDITIONS: human, 48 h, 10 µM, compound concentration 10 uM, replicate 2
REPORTED ENDPOINT: Population Pyknosed Nuclei (%)
Include the unit right after the number.

Example cases with answers are listed next.
MOLECULE: O=S(=O)(c1ccccc1)c1cnc2c(N3CCNCC3)cccc2c1 [INTEPIRDINE]
EXPERIMENTAL VALUE: 11%
--
MOLECULE: O=C(O)Cc1ccccc1Nc1c(Cl)cccc1Cl [DICLOFENAC]
EXPERIMENTAL VALUE: 11%

response.value for CC(=O)NCCc1c(Cc2ccccc2)[nH]c2ccccc12 [LUZINDOLE] (field: Population Pyknosed Nuclei (%)) = 5%

response.value for O=C1COc2nccc(-c3ccccc3F)c2CN1Cc1cc(C(F)(F)F)cc(C(F)(F)F)c1 (field: Population Pyknosed Nuclei (%)) = 14%

Input CN1CCN(c2nc3cc(C(F)(F)F)ccc3n3cccc23)CC1.O=C(O)/C=C\C(=O)O.O=C(O)/C=C\C(=O)O . Output Population Pyknosed Nuclei (%): 11%

----------
- Test system: HEK-293T
- PROTOCOL DETAILS: Multiplex assay against HEK293T
- Type: toxicity, cell-based
- EXPERIMENTAL CONDITIONS: human, 24 h, 1 µM, compound concentration 1 uM, replicate 1
REPORTED ENDPOINT: Population Fragmented Nuclei (%)
// note: answer is a bare numeric in %

As a guide, the following entries are already answered.
MOLECULE: O=C(O)c1cc2ccccc2c(Cc2c(O)c(C(=O)O)cc3ccccc23)c1O
U: %
EXPERIMENTAL VALUE: 8
--
MOLECULE: Cc1nc2ccc(Oc3ccc(F)cc3)cc2c(=O)n1C[C@H]1CCCN(C(C)C)C1.Cl
U: %
EXPERIMENTAL VALUE: 11
--
MOLECULE: C[C@H]1[C@H]2CC[C@H]3[C@@H]4CC=C5C[C@@H](N(C)C)CC[C@]5(C)[C@H]4CC[C@]23CN1C
U: %
EXPERIMENTAL VALUE: 9
--
MOLECULE: COc1ccc2c(c1)C(C(=O)N(Cc1ccc(N(C)C)cc1)c1ccc(C(C)C)cc1)CCC2.Cl (stereo not given)
U: %
EXPERIMENTAL VALUE: 9
--
MOLECULE: Cc1ccccc1C(=O)Nc1ccc(C(=O)N2CCCC(N(C)C)c3ccccc32)cc1.Cl (stereo not given)
U: %
EXPERIMENTAL VALUE: 11

Reported Population Fragmented Nuclei (%) for CC(C)(C)c1ccc(S(=O)(=O)Nc2ccc(Cl)cc2C(=O)c2cc[n+]([O-])cc2)cc1 was 8

// field: Population Fragmented Nuclei (%); key: CN(C)c1ccnc2sc3c(=O)n(N4CCCCCC4)cnc3c12 ; value = 10

Looking up N[C@@]1(C(=O)O)CO[C@H]2[C@H](C(=O)O)[C@H]21 , I see its Population Fragmented Nuclei (%) listed as 8

Entry Oc1c(CN2CCN(c3ccccn3)CC2)cc(Cl)c2cccnc12 , Population Fragmented Nuclei (%) reported as 6

In plain terms, O=C(O)Cc1ccccc1Nc1c(Cl)cccc1Cl has a documented Population Fragmented Nuclei (%) of 7

----------
- System: Fibroblast
- PROTOCOL DETAILS: Multiplex assay against human fibroblast
- Assay type: toxicity, cell-based
- EXPERIMENTAL CONDITIONS: 12 h, 10 µM, compound concentration 10 uM, replicate 1
Catalogue of Total Cell Count values
API doc: respond with a numeric literal and nothing else, no unit.

COMPOUND: O=C1COc2nccc(-c3ccccc3F)c2CN1Cc1cc(C(F)(F)F)cc(C(F)(F)F)c1
Total Cell Count: 161

Total Cell Count reading for O=C(NCC(=O)N1CC[C@H](N[C@H]2CC[C@@](O)(c3ccc(-c4ncccn4)cn3)CC2)C1)c1cccc(C(F)(F)F)c1 [PF-4136309] : 210

Briefly, Total Cell Count measured for c1cc(OCCCN2CCCCC2)ccc1CN1CCCCC1 [JNJ-5207852] : 193

Oc1c(CN2CCN(c3ccccn3)CC2)cc(Cl)c2cccnc12 has a reported Total Cell Count of 130

The compound listed as CSc1ccccc1N1CCN(CCCCCC(=O)NC2CCCc3ccccc32)CC1.Cl (stereo not given) has a reported Total Cell Count of 220

Given item C[C@H]1[C@H]2CC[C@H]3[C@@H]4CC=C5C[C@@H](N(C)C)CC[C@]5(C)[C@H]4CC[C@]23CN1C [CONESSINE] , the value recorded as its Total Cell Count is 189

Recorded result, COc1c(C)cc(NC(=O)c2nn(Cc3ccc(F)cc3)c3c2CN(C(=O)c2ccc[nH]2)C[C@]3(C)C(N)=O)cc1C , Total Cell Count: 166

For reference, reported Total Cell Count for O=S(=O)(c1ccccc1)c1cnc2c(N3CCNCC3)cccc2c1 [INTEPIRDINE] stands at 138

Given item Cc1ccc(C(C)(O)c2nc3ccccc3s2)c(C)c1 (stereo not given) , the value recorded as its Total Cell Count is 153

Looking up CN1CCN2c3ncccc3Cc3ccccc3C2C1 (stereo not given) [MIRTAZAPINE] , I see its Total Cell Count listed as 168

----------
- Test system: Fibroblast
- PROTOCOL DETAILS: Multiplex assay against human fibroblast
- Type: toxicity, cell-based
- EXPERIMENTAL CONDITIONS: 12 h, 10 µM, compound concentration 10 uM, replicate 1
REPORTED ENDPOINT: Population Apoptotic (%)
Report as a plain number; the unit % is understood.

Just so you know, measured Population Apoptotic (%) for CCOc1c2c(c(OCC)c3ncccc13)CN(c1ccc(CS(=O)(=O)NC(=O)Cc3ccccc3OC)cc1C)C2=O came out at 35

COc1cc(NC(=O)CCN2CCC(OC(=O)Nc3ccccc3-c3ccccc3)CC2)c(Cl)cc1CNC[C@H](O)c1ccc(O)c2[nH]c(=O)ccc12 has a reported Population Apoptotic (%) of 46

Input CN(C)c1ccnc2sc3c(=O)n(N4CCCCCC4)cnc3c12 . Output Population Apoptotic (%): 44

Kindly note the recorded Population Apoptotic (%) for Cc1ccccc1C(=O)Nc1ccc(C(=O)N2CCCC(N(C)C)c3ccccc32)cc1.Cl (centres undefined) , which is 58

----------
compounds and their reported Population Pyknosed Nuclei (%)
- Test system: HEK-293T
- PROTOCOL DETAILS: Multiplex assay against HEK293T
- Type: toxicity, cell-based
- EXPERIMENTAL CONDITIONS: human, 48 h, 1 µM, compound concentration 1 uM, replicate 2
Enter your answer as a number in %; do not include the unit.

COMPOUND SMILES: CCNC1(C(N)=O)CCN(c2ncnc3c2nc(-c2ccccc2Cl)n3-c2ccc(Cl)cc2)CC1
Population Pyknosed Nuclei (%): 8
//
COMPOUND SMILES: Cc1nc2ccc(Oc3ccc(F)cc3)cc2c(=O)n1C[C@H]1CCCN(C(C)C)C1.Cl
Population Pyknosed Nuclei (%): 6
//
COMPOUND SMILES: c1cc(OCCCN2CCCCC2)ccc1CN1CCCCC1
Population Pyknosed Nuclei (%): 4

Entry Cc1ccc(-c2ccc(F)cc2COc2ccc(CCC(=O)O)cc2)cc1 : Population Pyknosed Nuclei (%) on HEK-293T = 8

I looked up O=C(O)Cc1ccccc1Nc1c(Cl)cccc1Cl and its Population Pyknosed Nuclei (%) for HEK-293T was 4

----------
- Test system: HEK-293T
- PROTOCOL DETAILS: Multiplex assay against HEK293T
- Assay type: toxicity, cell-based
- EXPERIMENTAL CONDITIONS: human, 24 h, 1 µM, compound concentration 1 uM, replicate 1
REPORTED ENDPOINT: Population Pyknosed Nuclei (%)
Please state the figure in %; there is no need to write the unit.

Examples with answers:
COMPOUND: O=C1COc2nccc(-c3ccccc3F)c2CN1Cc1cc(C(F)(F)F)cc(C(F)(F)F)c1
ASSAYED SYSTEM: HEK-293T
EXPERIMENTAL VALUE: 7
//
COMPOUND: c1cc(OCCCN2CCCCC2)ccc1CN1CCCCC1
ASSAYED SYSTEM: HEK-293T
EXPERIMENTAL VALUE: 11
//
COMPOUND: O=C(NCCO)c1cccc(-c2cc(Nc3ccc(OC(F)(F)F)cc3)ncn2)c1
ASSAYED SYSTEM: HEK-293T
EXPERIMENTAL VALUE: 10
//
COMPOUND: Cc1ccc(-c2ccc(F)cc2COc2ccc(CCC(=O)O)cc2)cc1
ASSAYED SYSTEM: HEK-293T
EXPERIMENTAL VALUE: 7
//
COMPOUND: CCOc1c2c(c(OCC)c3ncccc13)CN(c1ccc(CS(=O)(=O)NC(=O)Cc3ccccc3OC)cc1C)C2=O
ASSAYED SYSTEM: HEK-293T
EXPERIMENTAL VALUE: 14
//
COMPOUND: CN1CCN2c3ncccc3Cc3ccccc3C2C1 (centres undefined)
ASSAYED SYSTEM: HEK-293T
EXPERIMENTAL VALUE: 10
//
COMPOUND: C[C@@H]1C[C@H]2[C@@H]3CCC4=CC(=O)C=C[C@]4(C)[C@@]3(F)[C@@H](O)C[C@]2(C)[C@@]1(O)C(=O)CO
ASSAYED SYSTEM: HEK-293T
EXPERIMENTAL VALUE: 12
//
COMPOUND: COc1cc(C(=O)N(CCCc2ccccc2)Cc2ccc(CC(=O)O)cc2)cc(OC)c1C
ASSAYED SYSTEM: HEK-293T
EXPERIMENTAL VALUE: 14

// switching to the query compound
Value of Population Pyknosed Nuclei (%) reported for the compound CC(=O)NCCc1c(Cc2ccccc2)[nH]c2ccccc12 is 11
